# test target: HDAC2 (Homo sapiens)
# Sequence (Q92769 whole entry, canonical isoform): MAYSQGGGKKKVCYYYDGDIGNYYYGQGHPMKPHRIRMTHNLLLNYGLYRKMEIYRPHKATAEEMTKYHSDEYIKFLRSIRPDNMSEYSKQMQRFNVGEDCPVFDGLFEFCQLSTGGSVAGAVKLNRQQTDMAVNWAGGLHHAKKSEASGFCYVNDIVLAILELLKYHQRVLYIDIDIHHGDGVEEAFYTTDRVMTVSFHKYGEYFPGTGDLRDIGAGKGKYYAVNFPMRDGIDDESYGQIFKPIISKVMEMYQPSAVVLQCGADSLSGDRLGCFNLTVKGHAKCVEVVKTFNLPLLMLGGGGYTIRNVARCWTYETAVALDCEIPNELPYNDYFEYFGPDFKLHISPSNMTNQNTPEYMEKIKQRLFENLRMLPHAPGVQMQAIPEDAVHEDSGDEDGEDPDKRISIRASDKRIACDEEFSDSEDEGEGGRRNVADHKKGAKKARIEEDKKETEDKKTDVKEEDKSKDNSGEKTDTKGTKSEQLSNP
# protocol text: HDAC isoform inhibition assay, HDAC2
observable: pIC50
One number for each entry, as −log10 of the molar value.

Give the reported pIC50 for this compound. COc1ccc2c(NCCCCCCCC(=O)NO)cc(=O)oc2c1 [Compound 10e]
9.17

---

# test target: HDAC4 (Homo sapiens)
# Sequence (P56524 whole entry, canonical isoform): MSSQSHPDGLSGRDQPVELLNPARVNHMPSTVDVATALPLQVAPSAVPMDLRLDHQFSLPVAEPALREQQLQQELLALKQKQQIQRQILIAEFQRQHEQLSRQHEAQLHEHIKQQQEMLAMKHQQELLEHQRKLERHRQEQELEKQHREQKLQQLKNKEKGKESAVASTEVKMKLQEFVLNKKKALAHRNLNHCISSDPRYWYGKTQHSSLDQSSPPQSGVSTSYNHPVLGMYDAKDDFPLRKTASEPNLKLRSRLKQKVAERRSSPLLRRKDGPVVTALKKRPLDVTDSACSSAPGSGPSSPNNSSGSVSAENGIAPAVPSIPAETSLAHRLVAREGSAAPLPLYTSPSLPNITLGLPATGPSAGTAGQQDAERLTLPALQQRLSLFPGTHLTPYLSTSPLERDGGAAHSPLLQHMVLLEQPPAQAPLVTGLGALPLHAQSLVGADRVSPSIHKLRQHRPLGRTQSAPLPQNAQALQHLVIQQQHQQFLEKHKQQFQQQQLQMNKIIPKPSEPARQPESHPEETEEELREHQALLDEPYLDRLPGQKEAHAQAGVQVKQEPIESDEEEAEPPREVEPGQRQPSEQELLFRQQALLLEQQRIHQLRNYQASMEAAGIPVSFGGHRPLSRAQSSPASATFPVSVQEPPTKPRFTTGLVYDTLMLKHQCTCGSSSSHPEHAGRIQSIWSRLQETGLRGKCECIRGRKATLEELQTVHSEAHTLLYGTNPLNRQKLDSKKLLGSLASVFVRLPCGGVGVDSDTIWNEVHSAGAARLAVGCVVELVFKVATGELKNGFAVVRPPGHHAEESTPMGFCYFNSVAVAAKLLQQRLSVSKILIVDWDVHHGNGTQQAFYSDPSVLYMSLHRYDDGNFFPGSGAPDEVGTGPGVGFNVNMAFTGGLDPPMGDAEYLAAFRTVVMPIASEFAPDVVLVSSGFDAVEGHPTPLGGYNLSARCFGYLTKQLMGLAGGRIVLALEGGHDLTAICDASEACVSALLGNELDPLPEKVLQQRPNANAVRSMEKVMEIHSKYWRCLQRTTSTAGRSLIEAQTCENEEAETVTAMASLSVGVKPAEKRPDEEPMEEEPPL
# protocol text: HDAC isoform inhibition assay, HDAC4
pIC50: −log10 of the molar value.
observable: pIC50

COc1ccc2c(NCCCCCCCC(=O)NO)cc(=O)oc2c1 [Compound 10e] ... < 6.00

Give the reported pIC50 for this compound. COc1ccc2c(OCCCCCCCC(=O)NO)cc(=O)oc2c1 [Compound 11d]
< 6.00

---

# test target: UniProt:Q96DB2
# Sequence (Q96DB2 whole entry, canonical isoform): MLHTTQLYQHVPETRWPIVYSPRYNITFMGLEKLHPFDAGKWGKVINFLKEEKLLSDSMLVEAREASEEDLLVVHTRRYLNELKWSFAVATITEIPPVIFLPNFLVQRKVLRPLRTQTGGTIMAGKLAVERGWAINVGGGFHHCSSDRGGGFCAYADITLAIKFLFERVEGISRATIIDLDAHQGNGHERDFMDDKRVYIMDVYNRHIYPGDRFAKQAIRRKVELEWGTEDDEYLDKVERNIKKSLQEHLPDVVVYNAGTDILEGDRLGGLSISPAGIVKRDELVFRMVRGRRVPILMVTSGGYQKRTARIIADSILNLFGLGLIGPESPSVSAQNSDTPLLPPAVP
# protocol text: HDAC isoform inhibition assay, HDAC11
pIC50: −log10 of the molar value.
Assign pIC50 to each entry below.

COc1ccc2c(NCCCCCCCC(=O)NO)cc(=O)oc2c1 [Compound 10e] ... < 6.00

As a next step, examine the molecule that follows.
Give the reported pIC50 for this molecule. COc1ccc2c(OCCCCCCCC(=O)NO)cc(=O)oc2c1 [Compound 11d]
< 6.00

---

# test target: recombinant HDAC1 (Homo sapiens, UniProt Q13547)
# Sequence (Q13547 whole entry): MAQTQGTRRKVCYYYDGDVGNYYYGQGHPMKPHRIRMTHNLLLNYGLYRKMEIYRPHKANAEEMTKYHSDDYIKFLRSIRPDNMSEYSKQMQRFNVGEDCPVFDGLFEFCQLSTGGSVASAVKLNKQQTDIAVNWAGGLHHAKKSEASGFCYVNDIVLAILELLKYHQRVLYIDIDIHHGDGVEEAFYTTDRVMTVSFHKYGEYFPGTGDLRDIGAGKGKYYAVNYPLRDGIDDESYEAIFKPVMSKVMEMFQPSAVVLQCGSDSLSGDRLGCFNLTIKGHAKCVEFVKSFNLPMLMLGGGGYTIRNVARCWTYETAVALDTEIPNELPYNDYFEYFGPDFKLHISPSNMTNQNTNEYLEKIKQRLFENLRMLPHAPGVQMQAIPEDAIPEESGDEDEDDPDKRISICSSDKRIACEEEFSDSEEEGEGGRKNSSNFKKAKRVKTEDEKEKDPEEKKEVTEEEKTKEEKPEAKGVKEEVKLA
# protocol text: HDAC1 inhibitory assay (protease-coupled, Ac-peptide-AMC fluorescence)
# run parameters: recombinant HDAC1; n ≥ 3
# Description: The HDAC1 enzyme activity in vitro was determined by the protease-coupled assay. Different concentrations of compounds were incubated with recombinant HDAC1 (BPS Biosciences, San Diego, CA, USA) at room temperature for 15 min, followed by adding trypsin, as well as Ac-peptide-AMC substrates, to initiate the reaction in a Tris-based assay buffer. […] The IC50 values were calculated by GraphPad Prism software (La Jolla, CA, USA). (for details see Supplementary Materials)
pIC50: −log10 of the molar value.
# if value of pIC50 reaches 8, tag yes (1); if it stays below, tag no (0)

COc1ccc2c(OCCCCCC(=O)NO)cc(=O)oc2c1 [Compound 11b] ... no (0)

Decide: pIC50 of COc1ccc2c(OCCCCCCC(=O)NO)cc(=O)oc2c1 [Compound 11c] >= 8?
yes (1)

Decide: pIC50 of COc1ccc2c(OCCCCC(=O)NO)cc(=O)oc2c1 [Compound 11a] >= 8?
no (0)

Decide: pIC50 of COc1ccc2c(NCCCCCCCC(=O)NO)cc(=O)oc2c1 [Compound 10e] >= 8?
yes (1)

Decide: pIC50 of O=C(CCNc1cc(=O)oc2ccccc12)NO [Compound 10a] >= 8?
no (0)

Decide: pIC50 of COc1ccc2c(NCCCCCCC(=O)NO)cc(=O)oc2c1 [Compound 10d] >= 8?
yes (1)

---

# test target: recombinant HDAC1 (Homo sapiens, UniProt Q13547)
# protocol text: HDAC1 inhibitory assay (protease-coupled, Ac-peptide-AMC fluorescence)
# run parameters: recombinant HDAC1; n ≥ 3
# note: boundary value 7 nM maps to no; IC50 below it maps to yes

O=C(CCCCCCCOc1ccc2ccc(=O)oc2c1)NO [Compound 12a] ... no

# TODO verify IC50 < 7 nM strictly for this molecule: COc1ccc2c(OCCCCCCCCC(=O)NO)cc(=O)oc2c1 [Compound 11e]
no

# TODO verify IC50 < 7 nM strictly for this molecule: O=C(CCCCCNc1cc(=O)oc2ccccc12)NO [Compound 10b]
no

# TODO verify IC50 < 7 nM strictly for this molecule: COc1ccc2c(NCCCCCC(=O)NO)cc(=O)oc2c1 [Compound 10c]
yes
